# TEST_DESCRIPTION: Bioavailability in dog at 1 mg/kg co-administered with 4 mg/kg ritonavir
# Assay type: ADME, organism-based, Canis lupus familiaris
# TEST_CONTEXT: in vivo

{"MOLECULE": "Cc1nc(COc2ccc(C[C@H](NC(=O)O[C@H]3CO[C@H]4OCC[C@H]43)[C@H](O)CN(CC(C)C)S(=O)(=O)c3ccc4c(c3)OCO4)cc2)cs1 [BRECANAVIR]", "UNIT_LABEL": "%", "bioavailability": 86}

---

# TEST_DESCRIPTION: Half life in rat at 1 mg/kg co-administered with 4 mg/kg ritonavir
# Assay type: ADME, organism-based
# TEST_CONTEXT: in vivo

{"CHEM_SMILES": "Cc1nc(COc2ccc(C[C@H](NC(=O)O[C@H]3CO[C@H]4OCC[C@H]43)[C@H](O)CN(CC(C)C)S(=O)(=O)c3ccc4c(c3)OCO4)cc2)cs1", "half-life (h)": 1.1}
